Counter-ions that a name gives are not always drawn.
ENDPOINT: melting point (°C)

>>> numeric_result("N=C(NC(=O)CCc1ccccc1C(F)(F)F)NC(=O)CCc1ccccc1C(F)(F)F (as salt: hydrochloride) [Example 7]")
75
>>> numeric_result("N=C(NC(=O)C1CCc2ccccc2C1)NC(=O)C1CCc2ccccc2C1 (centres unmarked) [Example 5]")
99

---

- TEST_SYSTEM: Na^+/H^+ exchanger of rabbit erythrocytes (Oryctolagus cuniculus)
- Construct: endogenous in cells
- Sequence (P23791 whole entry): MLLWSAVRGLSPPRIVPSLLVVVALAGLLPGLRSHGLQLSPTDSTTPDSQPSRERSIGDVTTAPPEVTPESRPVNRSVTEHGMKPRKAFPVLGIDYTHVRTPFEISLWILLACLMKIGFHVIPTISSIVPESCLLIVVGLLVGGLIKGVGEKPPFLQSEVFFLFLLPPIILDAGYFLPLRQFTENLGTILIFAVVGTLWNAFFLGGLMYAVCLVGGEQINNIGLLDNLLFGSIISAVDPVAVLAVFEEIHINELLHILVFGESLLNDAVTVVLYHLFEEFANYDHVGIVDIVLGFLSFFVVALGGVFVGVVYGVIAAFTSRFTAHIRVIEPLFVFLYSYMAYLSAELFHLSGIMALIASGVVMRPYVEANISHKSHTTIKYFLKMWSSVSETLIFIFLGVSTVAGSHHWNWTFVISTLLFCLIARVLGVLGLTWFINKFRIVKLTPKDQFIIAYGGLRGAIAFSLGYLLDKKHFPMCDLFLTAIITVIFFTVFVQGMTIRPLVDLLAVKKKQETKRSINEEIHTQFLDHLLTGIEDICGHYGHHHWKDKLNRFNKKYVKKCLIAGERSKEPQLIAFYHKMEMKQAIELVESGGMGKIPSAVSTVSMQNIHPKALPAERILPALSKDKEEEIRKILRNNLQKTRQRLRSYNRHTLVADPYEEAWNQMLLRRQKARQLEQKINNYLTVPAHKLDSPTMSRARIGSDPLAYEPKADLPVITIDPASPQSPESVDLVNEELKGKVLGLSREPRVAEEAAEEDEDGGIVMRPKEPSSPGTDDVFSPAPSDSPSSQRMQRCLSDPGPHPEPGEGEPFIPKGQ
- METHOD_NOTES: Inhibition of the Na+/H+ exchanger of rabbit erythrocytes (amiloride-sensitive sodium influx, flame photometry)
- CONDITION_LABEL: hyperosmolar salt/sucrose medium, pH 7.4, 37° C., Na^+ influx by flame photometry
ENDPOINT: IC50 (nM)

Past entries and their recorded results:
>>> numeric_result("N=C(NC(=O)C1CCc2ccccc2C1)NC(=O)C1CCc2ccccc2C1 (centres unmarked)")
300
>>> numeric_result("N=C(NC(=O)CCc1ccccc1C(F)(F)F)NC(=O)CCc1ccccc1C(F)(F)F")
2000
>>> numeric_result("CC(Cc1cc(F)ccc1F)C(=O)NC(=N)NC(=O)C(C)Cc1cc(F)ccc1F (centres unmarked)")
300
>>> numeric_result("Cl.N=C(NC(=O)c1ccc(F)c(C(F)(F)F)c1)NC(=O)c1ccc(-n2ccnc2)c(C(F)(F)F)c1 [Example 4, Hydrochloride]")
3000

(I) N=C(NC(=O)c1ccc(F)c(C(F)(F)F)c1)NC(=O)c1ccc(F)c(C(F)(F)F)c1
(II) C/C(=C\c1ccccc1)C(=O)NC(=N)NC(=O)/C(C)=C/c1ccccc1 [Example 6, N,N′-Bis[(E)-2-methylcinnamoyl]guanidide]
Query: # query: argmin of IC50 over I and II State the label of the item chosen.
Response: II

(1) CC(C)c1ccc(C(=O)NC(=N)NC(=O)c2ccc(C(C)C)c(S(C)(=O)=O)c2)cc1S(C)(=O)=O
(2) N=C(NC(=O)c1ccc(-n2ccnc2)c(C(F)(F)F)c1)NC(=O)c1ccc(-n2ccnc2)c(C(F)(F)F)c1
Query: # query: argmin of IC50 over 1 and 2 State the label of the item chosen.
Response: 2
(2: 5000 nM, 1: 10000 nM)
